Recorded values, source paper PMC12136788.

Molecular target: T1, UNK ZnF1-3 (human, UniProt Q9C0B0 31-174)
T1 sequence: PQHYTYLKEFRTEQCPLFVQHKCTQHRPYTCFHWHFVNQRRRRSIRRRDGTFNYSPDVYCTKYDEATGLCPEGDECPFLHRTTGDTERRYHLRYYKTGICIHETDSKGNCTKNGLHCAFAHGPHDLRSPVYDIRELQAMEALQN
Assay: nsRBNS (natural sequence RNA bind-n-seq); RBNS binding buffer (assumed for nsRBNS): 25 mM Tris pH 7.5, 150 mM KCl, 3 mM MgCl2, 0.01% Triton X-100, 500 ug/ml BSA, 20 U/ml SUPERase-In, 4 C; UNK is unkempt and MSI1 is Musashi-1; names of the RNAs are library labels; protein concentration not given here; high values mean tight binding
Over roughly 24,000 sequences, “enrichment r” has its median near 0.99; the highest 2% begin near 3.7. A selection follows.
// reported binding signal for each item listed
Measurement kind: binding signal (enrichment R)

Binder	Observed result
chr4:107545374:107545375:+_ENSMUSG00000028613_ENSMUST00000106731|mus_mus|FALSE|FALSE (ssRNA) RNA: GGGAGUUCUACAGUCCGACGAUCGUUGAUGGAUAGCCACAAAGCAUAAUUUUAUUUACAAAAAAAUCAAGCCCCUCAAACCUAAAAAAGCUCUCAACUCAAACAUCCUCUGUAAAUACUGUAUUCAAAUGAUGAGUGAAGUUUCAACAGAGGAUUGAGCAUCA	1.47
chr2:62099399:62099400:-_ENSG00000115484_ENST00000544079|hu_hu|FALSE|FALSE (ssRNA) RNA: GGGAGUUCUACAGUCCGACGAUCGUAGGAUUCCAUACCACUCAGUGUUCGUGAAUAUUCAGUUAAUCGUAGGGCCAACUCUAUUUCUGGAGCACCACCUCCUGCAAUAAGAGCCCUCUUCUUCACUAAACAACGAAUAACACACAACAGAGGAUUGAGCAUCA	1.13
chr7:44244176:44244177:+_ENSG00000106636_ENST00000223369|hu_mus|hu_hu_hu_mus_False|38_108 (ssRNA) RNA: GGGAGUUCUACAGUCCGACGAUCACUAUCAUUCCGGACGUAGACAUGGCAAAGAUACUCUUGUUCUUUGACAGAAGCUCUGCUGCCUUUCCCCGAGCGCUCCACAAUCAGUUGACUUGUAAAGGUCAUGAAUUCCUGCACACUCAACAGAGGAUUGAGCAUCA	0.779
